Target: T1, Mouse ST2 (mouse, UniProt P14719 27-332, limits assumed)
T1 construct: also called mouse ST2 protein
T1 sequence (looked up): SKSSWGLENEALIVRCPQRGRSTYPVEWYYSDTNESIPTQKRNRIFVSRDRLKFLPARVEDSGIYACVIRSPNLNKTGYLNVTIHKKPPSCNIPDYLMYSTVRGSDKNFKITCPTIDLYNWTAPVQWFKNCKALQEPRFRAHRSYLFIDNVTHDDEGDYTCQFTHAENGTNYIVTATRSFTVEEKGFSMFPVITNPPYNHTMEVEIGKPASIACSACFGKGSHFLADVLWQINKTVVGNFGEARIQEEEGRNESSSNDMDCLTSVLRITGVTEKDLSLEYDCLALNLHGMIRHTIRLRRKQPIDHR
Test: SPR (Carterra), antibody immobilized, ST2 analyte, 1:1
Metric Name: pKd
Note on units: pKd is unitless, being -log10 of a concentration expressed in mol/L.

{"columns": ["Binder", "pKd"],
 "data": [
  ["Human ST2 IgG1 Antibody 16 (antibody, V domains shown, IgG1, kappa; also called ST2 Antibody 16) VH: QVQLVQSGAEVKKPGASVKVSCKASGYTFTSHYMHWVRQAPGQGLEWMGIINPSGGSTSYAQKFQGRVTMTRDTSTSTVYMELSSLRSEDTAVYYCARAGIGYLAAHDLYYYYGMDVWGRGTLVTVSS VL: EIVMTQSPATLSVSPGERATLSCRASQSVSSNFAWYQQKPGQAPRLLIYGASTRATGIPARFSGSGSGTEFTLTISSLQSEDFAVYYCQQYYSTPYTFGQGTKVEIKR", 6.50],
  ["Human ST2 IgG1 Antibody 57 (antibody, V domains shown, IgG1, kappa; also called ST2 Antibody 57) VH: QVQLVQSGAEVKKPGASVKVSCKASGYTFTGYYMHWVRQAPGQGLEWMGVINPSGGSTSYAQKFQGRVTMTRDTSTSTVYMELSSLRSEDTAVYYCARGDYYYGSGSDYYYYYGMDVWGQGTLVTVSS VL: DIQMTQSPSSLSASVGDRVTITCRASQGVTSWLAWYQQKPGKAPKLLIYAASTLQSGVPSRFSGSGSGTDFTLTISSLQPEDFATYYCQQANSFPLTFGGGTKVEIKR", 5.51]
]}

Query binder follows.
Query: What pKd value was documented for this binder, Human ST2 IgG1 Antibody 76 (antibody, V domains shown, IgG1, kappa; also called ST2 Antibody 76) VH: QVQLVQSGAEVKKPGSSVKVSCKASGYTFTDYYMHWVRQAPGQGLEWMGVIIPVLGAAKYAQKFQGRVTITADESTSTAYMELSSLRSEDTAVYYCAKGWGAFDIWGQGTMVTVSS VL: EIVMTQSPATLSVSPGERATLSCRASQSVSSYLAWYQQKPGQAPRLLIYGASTRASGIPARFSGSGSGTEFTLTISSLQSEDFAVYYCQQYYSYPWTFGQGTKVEIKR ?
Result: 6.11
